Cited source: ChEMBL document CHEMBL5252572

- System: MDA-MB-231
- Assay explanation: Antiproliferative activity against human MDA-MB-231 cells assessed as inhibition of cell growth by SRB assay
- Assay type: functional, cell-based
Measured pIC50, listed per entry for reference.
Conceptually, pIC50 converts a concentration in mol/L into minus its log10.

Challenge: Looking for the measured pIC50 of CC(=O)O[C@@H]1C[C@H](O)[C@@]23COC[C@]1(C)[C@@H]2C[C@@H](O)[C@@]1(C)[C@@H]2[C@@H](O)C[C@@H](c4ccoc4)[C@]2(C)[C@@H](OC(C)=O)C(=O)[C@@H]13 , can you help?
Response given: 4.93

Challenge: What does the record list as pIC50 for CC(=O)O[C@@H]1C[C@H](O)[C@@]23COC(=O)[C@]1(C)[C@@H]2C[C@@H](O)[C@]1(C)[C@@H]3C(=O)[C@H](OC(C)=O)[C@@]2(C)[C@H](c3ccoc3)C[C@H]3O[C@]321 ?
Response given: 5.18

Challenge: I am curious: what pIC50 value has been reported for CC(=O)O[C@@H]1C[C@H](O)[C@@]23CO[C@@H](O)[C@]1(C)[C@@H]2C[C@@H](O)[C@]1(C)[C@@H]3C(=O)[C@H](OC(C)=O)[C@@]2(C)[C@H](c3ccoc3)C[C@H]3O[C@]321 ?
Response given: 6.94

====

- Tested on: HCC1806
- Assay explanation: Antiproliferative activity against human HCC1806 cells assessed as inhibition of cell growth at 20 uM by SRB assay relative to control
- Assay type: functional
Quick list: inhibition at 20 µM per entry.

These solved cases illustrate the format of a correct answer.
{"columns": ["Compound", "inhibition at 20 µM"],
 "data": [
  ["CC(=O)O[C@@H]1C[C@H](O)[C@@]23CO[C@@H](O)[C@]1(C)[C@@H]2C[C@@H](O)[C@]1(C)[C@@H]3C(=O)[C@H](OC(C)=O)[C@@]2(C)[C@H](c3ccoc3)C[C@H]3O[C@]321 [TOOSENDANIN]", "101%"],
  ["CC(=O)O[C@H]1C[C@@H](OC(C)=O)[C@]2(C)C(O)OC[C@]13[C@H]1C(=O)[C@H](OC(C)=O)[C@@]4(C)[C@H](c5ccoc5)C[C@H]5O[C@]54[C@]1(C)[C@H](OC(C)=O)C[C@@H]23 (some centres not stated)", "-27.9%"],
  ["COC1OC[C@]23[C@@H](O)C[C@@H](OC(C)=O)[C@@]1(C)[C@@H]2C[C@@H](O)[C@@]1(C)[C@@H]2C(=O)C[C@@H](c4ccoc4)[C@]2(C)[C@@H](OC(C)=O)C(=O)[C@@H]13 (some centres not stated)", "-15.8%"],
  ["CC(=O)O[C@@H]1C[C@H](O)[C@@]23COC[C@]1(C)[C@@H]2CC(=O)[C@@]1(C)[C@@H]2C(=O)C[C@@H](c4ccoc4)[C@]2(C)[C@@H](OC(C)=O)C(=O)[C@@H]13", "14.7%"],
  ["CC(=O)O[C@@H]1C[C@H](O)[C@@]23COC[C@]1(C)[C@@H]2C[C@@H](OC(=O)c1ccccc1F)[C@@]1(C)[C@@H]2C(=O)C[C@@H](c4ccoc4)[C@]2(C)[C@@H](OC(C)=O)C(=O)[C@@H]13", "-1.53%"],
  ["CC(=O)O[C@@H]1C[C@H](O)[C@@]23COC[C@]1(C)[C@@H]2C[C@@H](O)[C@@]1(C)[C@@H]2/C(=N/O)C[C@@H](c4ccoc4)[C@]2(C)[C@@H](OC(C)=O)C(=O)[C@@H]13", "10.9%"]
]}

Challenge: Name the reported inhibition at 20 µM value associated with the compound COc1ccc(C(=O)O[C@@H]2C[C@H]3[C@@]4(C)COC[C@@]3([C@@H](O)C[C@H]4OC(C)=O)[C@H]3C(=O)[C@H](OC(C)=O)[C@]4(C)[C@@H](C(=O)C[C@H]4c4ccoc4)[C@]23C)cc1
Response given: 0.37%

Challenge: What value of measured inhibition at 20 µM is listed for CC(=O)O[C@@H]1C[C@H](O)[C@@]23COC[C@]1(C)[C@@H]2C[C@@H](OC(=O)c1ccccc1)[C@@]1(C)[C@@H]2C(=O)C[C@@H](c4ccoc4)[C@]2(C)[C@@H](OC(C)=O)C(=O)[C@@H]13 ?
Response given: 14.9%

Challenge: Any idea what its inhibition at 20 µM is? The compound is CC(=O)OC1OC[C@]23[C@@H](OC(C)=O)C[C@@H](OC(C)=O)[C@@]1(C)[C@@H]2C[C@@H](OC(C)=O)[C@]1(C)[C@@H]3C(=O)[C@H](OC(C)=O)[C@@]2(C)[C@H](c3ccoc3)C[C@H]3O[C@@]312 (some centres not stated)
Response given: -31%

Challenge: Param item = CC(=O)O[C@@H]1C[C@H](O)[C@@]23COC(=O)[C@]1(C)[C@@H]2C[C@@H](O)[C@@]1(C)[C@@H]2C(=O)C[C@@H](c4ccoc4)[C@]2(C)[C@@H](OC(C)=O)C(=O)[C@@H]13 ; retrieve measured inhibition at 20 µM.
Response given: -24.7%

Challenge: Query (compound): CC(=O)O[C@@H]1C[C@H](O)[C@@]23COC[C@]1(C)[C@@H]2C[C@@H](O)[C@@]1(C)[C@@H]2[C@@H](O)C[C@@H](c4ccoc4)[C@]2(C)[C@@H](OC(C)=O)C(=O)[C@@H]13 ; field requested: inhibition at 20 µM
Response given: 87.3%

Challenge: Any idea what inhibition at 20 µM was measured for CC(=O)O[C@@H]1C[C@H](O)[C@@]23COC(=O)[C@]1(C)[C@@H]2C[C@@H](O)[C@]1(C)[C@@H]3C(=O)[C@H](OC(C)=O)[C@@]2(C)[C@H](c3ccoc3)C[C@H]3O[C@]321 ?
Response given: 93.8%
